These entries and their values trace back to patent US20240376207A1.

Target: T1, human PVRIG expressed on cells (human, UniProt Q6DKI7 41-326)
T1 sequence (looked up): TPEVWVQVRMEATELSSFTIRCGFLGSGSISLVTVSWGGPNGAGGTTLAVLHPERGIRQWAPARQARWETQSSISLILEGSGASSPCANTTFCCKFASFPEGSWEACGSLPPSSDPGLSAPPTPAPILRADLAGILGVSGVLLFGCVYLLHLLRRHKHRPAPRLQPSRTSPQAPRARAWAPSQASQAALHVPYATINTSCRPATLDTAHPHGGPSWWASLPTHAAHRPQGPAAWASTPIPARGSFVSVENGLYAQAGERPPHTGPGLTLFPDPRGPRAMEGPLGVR
Assay: cell-based or functional assay
Below, each entry is listed alongside its reported NK92 killing of K562, killing activity (%), 20 nM antibody.
readout_kind: NK92 killing of K562, killing activity (%), 20 nM antibody

{"binder": "anti-PVRIG antibody 30 (antibody, human IgG4 S228P, F234A L235A, V domains shown, no light chain) VH: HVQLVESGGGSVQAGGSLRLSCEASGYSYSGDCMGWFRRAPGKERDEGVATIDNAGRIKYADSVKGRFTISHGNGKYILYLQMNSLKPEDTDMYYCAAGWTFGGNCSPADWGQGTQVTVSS", "experimental_value": "36%"}
{"binder": "anti-PVRIG antibody 151 (antibody, human IgG4 S228P, F234A L235A, V domains shown, no light chain) VH: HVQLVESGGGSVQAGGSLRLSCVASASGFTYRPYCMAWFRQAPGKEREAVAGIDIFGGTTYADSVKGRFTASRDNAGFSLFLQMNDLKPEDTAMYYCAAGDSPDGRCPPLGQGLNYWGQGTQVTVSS", "experimental_value": "35%"}
{"binder": "positive antibody Tab5 (antibody, human IgG4 S228P, kappa, F234A L235A, V domains shown, Variable regions of CPA.7.021 (WO2016134333A1) on human IgG4 (S228P/F234A/L235A/K447A) and human kappa constant regions) VH: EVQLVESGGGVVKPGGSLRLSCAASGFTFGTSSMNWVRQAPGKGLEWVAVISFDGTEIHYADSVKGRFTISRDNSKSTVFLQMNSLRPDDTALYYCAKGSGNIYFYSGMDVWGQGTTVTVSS VL: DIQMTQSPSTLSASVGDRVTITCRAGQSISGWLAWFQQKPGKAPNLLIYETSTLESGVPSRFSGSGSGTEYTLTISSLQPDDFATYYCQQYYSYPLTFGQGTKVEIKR", "experimental_value": "32%"}
{"binder": "anti-PVRIG antibody 39 (antibody, human IgG4 S228P, F234A L235A, V domains shown, no light chain) VH: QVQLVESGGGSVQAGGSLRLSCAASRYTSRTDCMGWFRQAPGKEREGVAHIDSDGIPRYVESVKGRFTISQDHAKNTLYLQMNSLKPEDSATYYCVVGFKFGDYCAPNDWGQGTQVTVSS", "experimental_value": "32%"}
{"binder": "anti-PVRIG antibody 38 (antibody, human IgG4 S228P, F234A L235A, V domains shown, no light chain) VH: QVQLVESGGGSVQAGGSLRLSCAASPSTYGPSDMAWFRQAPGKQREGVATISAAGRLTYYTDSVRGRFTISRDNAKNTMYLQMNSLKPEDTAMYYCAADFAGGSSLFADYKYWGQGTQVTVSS", "experimental_value": "29%"}
